Molecular target: T1, human C5a receptor (human, UniProt P21730 1-350)
T1 sequence (looked up): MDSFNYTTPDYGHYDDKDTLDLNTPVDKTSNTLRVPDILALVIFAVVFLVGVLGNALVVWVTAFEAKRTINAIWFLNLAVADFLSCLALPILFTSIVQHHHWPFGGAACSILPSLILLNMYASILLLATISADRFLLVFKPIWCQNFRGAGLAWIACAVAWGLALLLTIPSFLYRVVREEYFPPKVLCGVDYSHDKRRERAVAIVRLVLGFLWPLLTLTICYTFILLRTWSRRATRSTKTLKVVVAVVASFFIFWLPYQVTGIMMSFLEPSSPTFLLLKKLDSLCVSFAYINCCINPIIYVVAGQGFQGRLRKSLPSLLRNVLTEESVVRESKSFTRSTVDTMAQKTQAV
Assay: cell-based or functional assay
Would you kindly list ED50 [nM] (N-acetyl-beta-D-glucosaminidase release from C5aR-RBL cells) for each of these binders?
Give bare numbers, in nM.

C5a-(1-66,Cys27Ala)-A8B-Ala69 (ligand, also called A8B-Arg69Ala) TLQKKIEEIAAKYKHSVVKKCCYDGAAVNNDETCEQRAARISLGPRCIKAFTECCVVASQLRANISFKASLLR    36.8

Pending binder:
Prompt line: Reported ED50 [nM] (N-acetyl-beta-D-glucosaminidase release from C5aR-RBL cells) for C5a-(1-66,Cys27Ala)-A8B-Asp69 (ligand, also called A8B-Arg69Asp) TLQKKIEEIAAKYKHSVVKKCCYDGAAVNNDETCEQRAARISLGPRCIKAFTECCVVASQLRANISFKDSLLR : what is it?
Response line: 5.9
